Test system: RXF 393 renal
Assay: NCI tumour cell line growth inhibition, 48 h
Where a SMILES comes first, the peptide text is derived from it. [ ]: non-standard residue; d: D form. Ac5c = NC1(C(=O)O)CCCC1

[
  {
    "Compound": "O=C(O)CCc1nc2c(n1Cc1ccccc1)C(=O)c1ccccc1C2=O",
    "TGI": "> 100 µM"
  },
  {
    "Compound": "NCC(=O)NC1(C(=O)O)CCCC1 (H-Gly-[Ac5c]-OH)",
    "TGI": "> 100 µM"
  },
  {
    "Compound": "O=C1c2ccccc2C(=O)N1CCn1nc(-c2ccccc2)cc(-c2ccccc2)c1=O",
    "TGI": "> 100 µM"
  },
  {
    "Compound": "O=C(/C=C\\c1ccc(-c2ccccc2)cc1)c1cccs1",
    "TGI": "46.4 µM"
  }
]
